TEST SUMMARY: DPPH free radicals scavenging assay
MEASUREMENT CONDITIONS: conc. 500 μg/mL; n = 3
What Percent inhibition (mean ± SEM), DPPH free radicals scavenging was measured for each of the following?
Report the figure in % without appending any unit label.

Quick one: Percent inhibition (mean ± SEM), DPPH free radicals scavenging of CCOC(=O)C1(C2CC(=O)N(c3ccccc3)C2=O)CCCC1=O (centres unmarked) ?
52.49

Quick one: Percent inhibition (mean ± SEM), DPPH free radicals scavenging of CCOC(=O)C1(C2CC(=O)N(Cc3ccccc3)C2=O)CCCC1=O (centres unmarked) ?
52.48

Quick one: Percent inhibition (mean ± SEM), DPPH free radicals scavenging of CCOC(=O)C1(C2CC(=O)N(c3ccccc3)C2=O)CCCCC1=O (centres unmarked) ?
54.64

Quick one: Percent inhibition (mean ± SEM), DPPH free radicals scavenging of CCOC(=O)C1(C2CC(=O)N(Cc3ccccc3)C2=O)CCCCC1=O (centres unmarked) ?
24.75

Quick one: Percent inhibition (mean ± SEM), DPPH free radicals scavenging of O=C1O[C@H]([C@@H](O)CO)C(O)=C1O [Ascorbic acid, reference compound] ?
81.71
